# credit: patent US20050137220A1

The entries below are paired with their reported pIC50.
# system_under_test: MK-2 (Homo sapiens)
# Sequence (P49137 whole entry, species assumed): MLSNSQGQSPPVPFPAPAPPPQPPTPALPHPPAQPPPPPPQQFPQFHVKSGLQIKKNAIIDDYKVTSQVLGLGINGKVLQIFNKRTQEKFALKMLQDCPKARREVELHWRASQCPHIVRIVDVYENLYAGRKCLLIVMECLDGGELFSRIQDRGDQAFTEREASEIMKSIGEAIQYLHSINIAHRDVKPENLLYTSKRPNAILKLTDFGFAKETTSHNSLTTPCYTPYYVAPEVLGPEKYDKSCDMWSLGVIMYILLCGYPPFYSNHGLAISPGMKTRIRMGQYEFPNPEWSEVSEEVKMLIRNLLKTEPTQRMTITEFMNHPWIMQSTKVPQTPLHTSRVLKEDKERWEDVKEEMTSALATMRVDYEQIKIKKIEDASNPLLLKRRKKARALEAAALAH
# assay_protocol: Determination of MK-2 IC50 (phosphorylation of HSP-peptide, anion exchange resin capture assay)
# Format: biochemical
# measurement_context: additional values are replicate IC50 experiments; mixture of stereoisomers implied unless otherwise noted; read-out: MK-2 Avg. IC50
Structures can show the parent of a compound that is named as a salt.
As a rule, pIC50 stands for the negative log10 of the concentration, concentration in M.

Consider the following illustrative entries.
COC(=O)C(Oc1ccc2[nH]c3c(c2c1)CCNC3C(=O)O)c1ccccc1 (centres unmarked) : 5.02
COc1ccc2[nH]c3c(c2c1)CCNC3c1nnn[nH]1 (centres unmarked) [Example 143, trifluoroacetate hydrate] : 3.90
O=C1NCCc2c1[nH]c1ccc(Br)cc21 : 4.16
CCCC1Cc2c([nH]c3ccc(OC)cc23)C(C(=O)O)N1 (centres unmarked) [Example 148] : 3.86
CCCC1CNC(C(=O)O)c2[nH]c3ccc(OC)cc3c21 (centres unmarked) : 5.07
O=C(O)C1c2c(c3ccccc3n2Cc2ccccc2)CCN1Cc1cccc(C(F)(F)F)c1 (centres unmarked) : 4.27
CCOC(=O)c1ccc(COc2ccc3[nH]c4c(c3c2)CCNC4C(=O)O)o1 (centres unmarked) : 3.98
COc1ccc(Oc2ccc3[nH]c4c(c3c2)CCC/C4=N\O)cc1 : 3.89

pIC50 reported for this compound COc1ccc2[nH]c3c(c2c1)CCN1C(=O)NC(=O)C31 (centres unmarked) : 3.76
